Exercise: for every item that follows, state its recorded protein stability index.
B1: NETO1 (parent)
chain: KTSLLDQLTNTSGTVIGVTSCIVI

Variants of: B1
protocol-details: protein stability index of a GFP-peptide fusion (GPS, HEK-293T) (PSI 1-6); higher = more stable;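 further: lentivirally expressed fusions sorted by FACS into six bins by GFP to DsRed ratio, PSI derived from sequencing read proportions per bin multiplied by bin number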
experimental-context: c terminus: a fixed tail appended
Reply with just the number.

# variant PTSLLDQLTNTSGTVIGVTSCIVI [K1P] ; its protein stability index = 3.02

# variant KTSLLDQLTNTSGTVIGVTHCIVI [S20H] ; its protein stability index = 2.97

# variant KTSLLDQLTNTSGTTIGVTSCIVI [V15T] ; its protein stability index = 3.07

# variant KTSLGDQLTNTSGTVIGVTSCIVI [L5G] ; its protein stability index = 2.97

# variant KTSLLLQLTNTSGTVIGVTSCIVI [D6L] ; its protein stability index = 2.92

# variant ETSLLDQLTNTSGTVIGVTSCIVI [K1E] ; its protein stability index = 3.07
